Values from patent US20240148821A1

Task for the reader: assign each of the following compounds its reported pIC50.
- assayed-target: protein-protein interaction between Kras and SOS1 (biotin-tagged human Kras loaded with GDP, His-tagged human SOS1) (Homo sapiens (Human), UniProt P01116, G12D)
- assay-procedure: Protein-protein interaction inhibition between Kras and SOS1 (KrasG12D-SOS PPI) using AlphaScreen;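 also: kras produced in E. coli, Ni-coupled donor beads and streptavidin acceptor beads, excitation 680 nm with emission detected at 520–620 nm via singlet oxygen transfer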
- Format: biochemical
- measurement-setup: AlphaScreen; biotin-tagged human Kras loaded with GDP, His-tagged human SOS1; read-out: KRAS G12D-SOS PPI IC50
Numbered stars: 1 amine (or outer) side, 2 acyl side, 3 side chain; on linkers, the order of the positions; unused ones are H or OH. Bridge positions count the residues as written; N and C are the ends. Square brackets hold non-standard residues; d marks the D form. Peptide text beside a SMILES is read from it. * marks the point of attachment. hPhe(3-Cl-4-CF3) = N[C@@H](CCc1ccc(C(F)(F)F)c(Cl)c1)C(=O)O; NMePhe(4-CF3) = CN[C@@H](Cc1ccc(C(F)(F)F)cc1)C(=O)O; hPhe(4-CF3) = N[C@@H](CCc1ccc(C(F)(F)F)cc1)C(=O)O; NMePhe(4-Cl) = CN[C@@H](Cc1ccc(Cl)cc1)C(=O)O; NMedβ3hAla = C[C@H](CC(=O)[*:2])N(C)[*:1]; NMeCha = CN[C@@H](CC1CCCCC1)C(=O)O; NEtLeu = CCN[C@@H](CC(C)C)C(=O)O; NMeI = CC[C@H](C)[C@H](NC)C(=O)O; NMeD = CN[C@@H](CC(=O)O)C(=O)O; Morpholide = C1CN(*)CCO1; NMeA = CN[C@@H](C)C(=O)O; NMeAib = CNC(C)(C)C(=O)O; Ac5c = NC1(C(=O)O)CCCC1; Aze = O=C(O)[C@@H]1CCN1; Sar = CNCC(=O)O
Hey, just a heads up that pIC50 is the negative log base 10 of the concentration in molar.

Task: Read off the recorded pIC50 for CC[C@H](C)[C@@H]1NC(=O)[C@H](CC2CCCCC2)N(C)C(=O)C[C@@H](C)N(C)C(=O)[C@H](CC(C)C)NC(=O)C(C)(C)N(C)C(=O)[C@H](CC(C)C)NC(=O)[C@H](CCc2ccc(C(F)(F)F)cc2)NC(=O)CN(C)C(=O)[C@H](Cc2ccc(Cl)cc2)N(C)C(=O)CN(C)C(=O)CN(C)C1=O [Compound 595] (cyclo(I[Sar][Sar][NMePhe(4-Cl)][Sar][hPhe(4-CF3)]L[NMeAib]L[NMedβ3hAla][NMeCha]))
Output: 6.54

Task: Read off the recorded pIC50 for CC[C@H](C)[C@@H]1NC(=O)[C@H](CC(C)C)N(CC)C(=O)C[C@@H](C(=O)N2CCOCC2)N(C)C(=O)[C@H]([C@@H](C)CC)N(C)C(=O)C2(CCCC2)NC(=O)[C@@H]2CCCN2C(=O)[C@H](CCc2ccc(C(F)(F)F)c(Cl)c2)NC(=O)CN(C)C(=O)[C@H](Cc2ccc(C(F)(F)F)cc2)N(C)C(=O)[C@@H]2CCN2C(=O)[C@H](C)N(C)C1=O [Compound 1234] ([NEtLeu]I[NMeA][Aze][NMePhe(4-CF3)][Sar][hPhe(3-Cl-4-CF3)]P[Ac5c][NMeI][NMeD]-Morpholide; lactam N-11)
Output: 8.35
